Consider the following compounds and their measured melting point readings.

Record summary for COc1ccc(-c2cc(NC(=O)COCC(=O)N3CCN(CC(=O)NC(C)(C)C)CC3)nc(-c3ccc(OC)cc3)n2)cc1 [10a] : reported melting point = 106 to 108 °C

Field melting point (entry COc1ccc(-c2cc(NC(=O)COCC(=O)N(C)CC(=O)NC(C)(C)C)nc(-c3ccc(OC)cc3)n2)cc1 ) reads 115 to 117 °C

response.value for COc1ccc(-c2cc(NC(=O)COCC(=O)N(C)CC(=O)NC3CCCCC3)nc(-c3ccc(OC)cc3)n2)cc1 (field: melting point) = 186 to 188 °C

Briefly, melting point measured for COc1ccc(-c2cc(NC(=O)CCC(=O)N3CCN(CC(=O)NCc4ccccc4)CC3)nc(-c3ccc(OC)cc3)n2)cc1 : 194 to 195 °C

The compound listed as COc1ccc(-c2cc(NC(=O)COCC(=O)NCC(=O)NCc3ccccc3)nc(-c3ccc(OC)cc3)n2)cc1 shows melting point equal to 201 to 203 °C

Data point: COc1ccc(-c2cc(NC(=O)CCC(=O)NCC(=O)NC(C)(C)C)nc(-c3ccc(OC)cc3)n2)cc1 ; melting point = 176 to 178 °C

Form: compound = COc1ccc(-c2cc(NC(=O)CCC(=O)NCC(=O)NC3CCCCC3)nc(-c3ccc(OC)cc3)n2)cc1 ; melting point = 202 to 204 °C

Sure, the documented melting point for COc1ccc(-c2cc(NC(=O)CCC(=O)N3CCN(CC(=O)NC(C)(C)C)CC3)nc(-c3ccc(OC)cc3)n2)cc1 is 203 to 205 °C

====

- Test System: hA2A (human A2A adenosine receptor) (Homo sapiens, UniProt P29274)
- Construct: expressed in transfected cells; host or cells: HeLa
- Sequence (P29274 whole entry): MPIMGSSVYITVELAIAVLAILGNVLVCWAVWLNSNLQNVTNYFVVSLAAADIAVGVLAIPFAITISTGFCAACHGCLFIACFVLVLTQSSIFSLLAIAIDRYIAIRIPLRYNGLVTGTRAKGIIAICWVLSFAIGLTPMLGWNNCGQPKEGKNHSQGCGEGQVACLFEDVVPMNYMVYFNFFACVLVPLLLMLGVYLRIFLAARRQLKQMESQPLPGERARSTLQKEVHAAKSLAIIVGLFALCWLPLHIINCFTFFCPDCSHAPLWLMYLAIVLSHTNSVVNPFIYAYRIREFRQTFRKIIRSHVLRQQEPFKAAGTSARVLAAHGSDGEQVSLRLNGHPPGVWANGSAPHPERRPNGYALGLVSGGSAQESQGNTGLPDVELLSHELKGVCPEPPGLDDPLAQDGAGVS
- Type: binding
- Test Conditions: human HeLa cells, n = 2
Measure: hA2A % displacement of specific binding at 1 μM (%)
Respond with the bare value in %.

Completed entries (count: 3):
hA2A % displacement of specific binding at 1 μM in this record for COc1ccc(-c2cc(NC(=O)COCC(=O)N3CCN(CC(=O)NC(C)(C)C)CC3)nc(-c3ccc(OC)cc3)n2)cc1 [10a] : 36

# hA2A % displacement of specific binding at 1 μM (compound: COc1ccc(-c2cc(NC(=O)CCC(=O)N3CCN(CC(=O)NC(C)(C)C)CC3)nc(-c3ccc(OC)cc3)n2)cc1 ) is 4

Field hA2A % displacement of specific binding at 1 μM (entry COc1ccc(-c2cc(NC(=O)COCC(=O)NCC(=O)NC3CCCCC3)nc(-c3ccc(OC)cc3)n2)cc1 ) reads 9

Here's the next entry for you.
According to the records, this compound COc1ccc(-c2cc(NC(C)=O)nc(-c3ccc(OC)cc3)n2)cc1 [ISVY-130, reference compound] displays hA2A % displacement of specific binding at 1 μM of 10
